For each entry below, report its AUC(0-t) at 6 h value.
test: AUC (0 to 6 hrs) in rat at 10 mg/kg, po; format: ADME, organism-based; design: time < 6 hr, dose 10 mg/kg, route oral; details: plasma
Response body: numeric value in µM·h, unit text excluded.

AUC(0-t) at 6 h for COc1cc(C)c2nc3[nH]nc(C)c3c(CN3CCCOCC3)c2c1 ?
3.76

And for Cc1ncc(C(O)c2c3cc(Cl)cc(C)c3nc3[nH]nc(C)c23)cn1 (racemic) ?
4.29

And the next one, Cc1cc(Cl)cc2c(C(O)c3cccnc3)c3c(C)n[nH]c3nc12 (racemic) ?
11
